# tested.system: T1, soluble human FcRn (shFcRn) (human, UniProt P55899 24-297; P61769 21-119)
# T1 construct: Biotinylated for the ELISA, amine-coupled to a CM5 chip for SPR; also called biotinylated shFcRn
# T1 sequence (P55899 24-297 limits assumed, chain 1 of 2): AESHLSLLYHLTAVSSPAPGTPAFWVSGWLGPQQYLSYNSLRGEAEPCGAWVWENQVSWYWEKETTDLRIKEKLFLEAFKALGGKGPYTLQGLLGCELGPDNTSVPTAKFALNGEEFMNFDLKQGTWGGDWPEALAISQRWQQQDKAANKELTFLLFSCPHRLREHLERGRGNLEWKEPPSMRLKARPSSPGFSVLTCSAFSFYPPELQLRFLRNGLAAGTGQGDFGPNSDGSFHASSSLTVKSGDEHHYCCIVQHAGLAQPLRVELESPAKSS
# T1 sequence (P61769 21-119 limits assumed, chain 2 of 2): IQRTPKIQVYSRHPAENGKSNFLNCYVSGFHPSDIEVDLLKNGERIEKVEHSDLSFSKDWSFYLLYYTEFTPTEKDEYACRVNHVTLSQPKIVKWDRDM
# method: SPR pH 6
Bridge positions count the residues as written; N and C are the ends. Square brackets hold non-standard residues; d marks the D form. Ends that are not written are not given here. Pen = CC(C)(S)[C@H](N)C(=O)O
reported.endpoint: Kd (nM)
# number only, unit nM dropped from output

Exercise: Requested field: Kd. Item: QRF[Pen]TGHFGGLYPCNGP-NH2 (disulfide 4-14; N-terminus assumed; SMILES CC(C)C[C@@H]1NC(=O)CNC(=O)CNC(=O)[C@H](Cc2ccccc2)NC(=O)[C@H](Cc2c[nH]cn2)NC(=O)CNC(=O)[C@H]([C@@H](C)O)NC(=O)[C@@H](NC(=O)[C@H](Cc2ccccc2)NC(=O)[C@H](CCCNC(=N)N)NC(=O)[C@@H](N)CCC(N)=O)C(C)(C)SSC[C@@H](C(=O)N[C@@H](CC(N)=O)C(=O)NCC(=O)N2CCC[C@H]2C(N)=O)NC(=O)[C@@H]2CCCN2C(=O)[C@H](Cc2ccc(O)cc2)NC1=O) [Peptide No. 32]
Solution: 250

meta.source: patent US20110059889A1
